System: rodent lifetime carcinogenesis bioassay, tumor incidence TD50
Assay: carcinogenic potency in animals, long-term in vivo studies, CPDB compilation (AID 1745844)
Conditions: rat; strain Sprague-Dawley; females; in feed; site: lung; lesion: alveolar-cell carcinoma; dosed 46 weeks; study length 66 weeks
Below, each of the compounds is paired with its reported TD50 value.
ATTRIBUTE MEASURED: TD50

> print(dat)
                                smiles.data  attribute.measured        measured
1   CC(=O)NCc1nc(-c2ccc([N+](=O)[O-])o2)no1                TD50  59.6 mg/kg/day
2                    Nc1ncc([N+](=O)[O-])s1                TD50   157 mg/kg/day
3          Nc1nnc(-c2ccc([N+](=O)[O-])o2)o1                TD50   242 mg/kg/day
4  CN(C)/C=N/c1nnc(/C=C/c2ccc([N+](=O)[O-])o2)o1                TD50   683 mg/kg/day
